Each entry below carries its reported MIC.
system: Klebsiella aerogenes; assay: Antibacterial activity of compound was determined against Klebsiella aerogenes 1976E; type: functional

Recorded MIC, per entry:
> print(dat)
                                   molecule    measured
1  CSCC[C@H](N)C(=O)OC[C@H]1O[C@@H](n2cnc3c(N)ncnc32)[C@H](O)[C@@H]1O  > 64 µg/mL
2                       CSCC[C@H](N)C(=O)NO     4 µg/mL
3  CSCC[C@H](N)C(=O)NOC[C@H]1OC(n2cnc3c(N)ncnc32)[C@H](O)[C@@H]1O (stereo not given in full)  > 64 µg/mL
4  CSCC[C@H](N)C(=O)N(O)C[C@H]1OC(n2cnc3c(N)ncnc32)[C@H](O)[C@@H]1O (stereo not given in full)  > 64 µg/mL

Please examine the following record next.
Could you tell me which MIC is on file for CSCC[C@H](N)C(=O)NC[C@H]1OC(n2cnc3c(N)ncnc32)[C@H](O)[C@@H]1O (stereo not given in full) ? > 64 µg/mL

Recorded values, source ChEMBL document CHEMBL1131707.
